experiment: collision cross section in nitrogen (drift tube, single-field); higher = larger gas-phase ion size; details: ion type: [M-H]; ion source: ESI; ion mode: Negative;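 also: chemical standards at 10 µM analysed by drift tube IMS-QTOF MS in about 3.95 torr nitrogen, mean of duplicate injections differing ≤1%, mass error below 10 ppm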
readout_label: collision cross section in nitrogen (Å²)

> print(dat)
                                   compound                        readout.label  result.number
1                  O=C(O)c1c(Cl)ccc(Cl)c1Cl  collision cross section in nitrogen          143.9
2  CCC(C)(CCCC(C)C)OC(C)=O (stereo not drawn) [3,7-Dimethyloctan-3-yl acetate]  collision cross section in nitrogen          154.8
3  O=C(O)CCN(C1(C(=O)NO)CCCC1)S(=O)(=O)c1ccc(Oc2ccc(F)cc2)cc1  collision cross section in nitrogen          198.1
